tgt: the molecule itself
experiment: SEC-MALS; 2 mg/mL (86-93 µM) Prx in 50 mM HEPES pH 7.5, 100 mM NaCl; TSK Gel 4000 SW; reduced samples with 10 mM DTT, oxidized samples with 1.2 equivalents of H2O2
readout_kind: stoichiometry N

[[record]]
protein = "human peroxiredoxin 2 Thr82Glu, engineered dimer (enzyme, UniProt P32119 1-198, looked up, peroxiredoxin 2 (Prx2), human; Vector pET19pp; His tag removed with HRV-3C protease; Section 2.6 prints the mutation as T83E; In the repair assay the protein was about 80% hyperoxidized; also called Prx2-T82E; Prx2-E; source: E. coli BL21Gold (DE3), purified (HisPur Cobalt, Q-Sepharose, Superdex 200); not shown: His tag, N-terminal, cleaved) MASGNARIGKPAPDFKATAVVDGAFKEVKLSDYKGKYVVLFFYPLDFTFVCPTEIIAFSNRAEDFRKLGCEVLGVSVDSQFEHLAWINTPRKEGGLGPLNIPLLADVTRRLSEDYGVLKTDEGIAYRGLFIIDGKGVLRQITVNDLPVGRSVDEALRLVQAFQYTDEHGEVCPAGWKPGSDTIKPNVDDSKEYFSKHN"
result = 2

